experiment: Immunotoxin (HA22) sensitization/mitigation study. Vehicle arm (PBS) (AID 1159510); settings: cancer cells viability with PBS vehicle (HA22 study); series mostly up to 46.1 µM
Calls of active or inactive are those of the source. How the calls were made is not given here.
Result category, one only: yes = active, no = inactive

Solved cases (5 shown):
CCCS(=O)(=O)Nc1ccc(F)c(C(=O)c2c[nH]c3ncc(-c4ccc(Cl)cc4)cc23)c1F: yes
CCN1CCN(Cc2ccc(-c3cc4c(N[C@H](C)c5ccccc5)ncnc4[nH]3)cc2)CC1: yes
COc1cccc2cc(-c3nc(C4CCC(C(=O)O)CC4)n4ncnc(N)c34)[nH]c12 (centres undefined): yes
CCN(CC)CCn1c(=O)c(Cc2ccc(OC)cc2)nc2ccccc21: no
c1ccc2c(CCNc3ccc(Nc4ccncc4)cc3)c[nH]c2c1: yes

How was O=C(O)CC/C=C\CC[C@H]1[C@@H](N2CCCCC2)[C@@H](O)C[C@@H]1OCc1ccc(-c2ccccc2)cc1 classified in this test? no

How was Cc1ccc(C(=O)Nc2ccc(CN3CCN(C)CC3)c(C(F)(F)F)c2)cc1C#Cc1cnc2cccnn12 classified in this test? yes

How was CCC(=C(c1ccccc1)c1ccc(OCCN(C)C)cc1)c1ccccc1 classified in this test? yes

How was C1=CCOCc2cc(ccc2OCCN2CCCC2)Nc2nccc(n2)-c2cccc(c2)OCC1 classified in this test? yes

How was C=CC(=O)Nc1cc2c(Nc3ccc(F)c(Cl)c3)ncnc2cc1C#CC(C)(C)N1CCN(C)CC1 classified in this test? yes

How was Cc1cc(Nc2cc(N3CCN(C)CC3)nc(Sc3ccc(NC(=O)C4CC4)cc3)n2)n[nH]1 classified in this test? yes

How was CC(C)OC(=O)C1=CN(C(=O)c2ccc(F)c(F)c2)CC(C)(C)c2c1[nH]c1ccccc21 classified in this test? yes

How was C=CCc1cccc(/C=N/NC(=O)CN2CCN(Cc3ccccc3)CC2)c1O classified in this test? yes

---

test: Quantitative High-Throughput drug screen in 47 multiple myeloma cell lines against the NCATS MIPE library collection: KMS12BM_JCRB cell viability assay (AID 1918971); conditions: KMS12BM myeloma viability, CellTiter-Glo ATP, 48 h; series mostly up to 45.8 µM; further: nearly all actives have a fitted effect of over 35% in size
Records with an inconclusive call do not appear. Active and inactive are the calls of the source. Calls follow the shape of the dose curve; as a rule, active = well fitted cell-killing curve with a large enough effect; inconclusive = small, poorly fitted or top-dose-only effect, or effect the other way; inactive = no such curve, though single readings can be large or run the other way.
Result category, one only: active, inactive

Solved cases (2 shown):
CC1=C(O)C(=O)C=C2C1=CC=C1[C@@]2(C)CC[C@@]2(C)[C@@H]3C[C@](C)(C(=O)O)CC[C@]3(C)CC[C@]12C: active
CC[C@@]1(O)C(=O)OCc2c1cc1n(c2=O)Cc2cc3ccccc3nc2-1: active

How was N=c1c2c(-c3ccccc3)c(-c3ccccc3)n(Cc3ccccc3)c2ncn1C1CCC(O)CC1 (stereo not drawn) classified in this test? active

How was CC(O)=C(C#N)C(=O)Nc1cc(Br)ccc1Br classified in this test? active

How was COC[C@H]1OC(=O)c2coc3c2[C@@]1(C)C1=C(C3=O)[C@@H]2CC[C@H](O)[C@@]2(C)C[C@@H]1OC(C)=O classified in this test? active

How was O=c1cccc2n1CC1CNC[C@H]2C1 classified in this test? inactive

How was Cc1c(C(=O)c2cccc3ccccc23)c2cccc3c2n1[C@H](CN1CCOCC1)CO3 classified in this test? active

How was CN(C)NC(=O)CCC(=O)O classified in this test? active

How was CC(=O)O[C@@]12CO[C@H]1C[C@H](O)[C@@]1(C)C(=O)[C@H](O)C3=C(C)[C@@H](O)C[C@@](O)([C@@H](OC(=O)c4ccccc4)[C@@H]21)C3(C)C classified in this test? active

How was C[C@@]12OC(=O)[C@]1([C@@H](O)[C@@H]1C=CCCC1)NC(=O)[C@H]2CCCl classified in this test? active

How was CN1[C@H]2CC(O)C[C@H]1[C@H]1O[C@H]12 (stereo partly drawn) classified in this test? active

How was C=C1C[C@H]2[C@H]3CCC(=O)[C@@]3(C)CC[C@@H]2[C@@]2(C)C=CC(=O)C=C12 classified in this test? active

How was C=C[C@@H]1CN2CCC1C[C@@H]2[C@@H](O)c1ccnc2ccccc12 (stereo partly drawn) classified in this test? active

These entries and their values trace back to PubChem BioAssay (NCATS).
